- Procedure Details: soluble on expression in E. coli; label from the status in PepcDB or PDB records
Recorded Endpoint: soluble on expression in E. coli

Residue Sequence | Measured Value
SKLLDKDGKVFAEVGTERREYIEYKDIPETLKNAILTTEDARFYEHDGIDPIRLGGAVVANVTDGFGAEGASTLSQQIIKMSYLDYTNKTLARKAQEAWLALQLEEKYSKNDILEIYVNKVYMSDRVHGMQTAAEHYFGKNVKDLTLAETALLAGMPQSPNNYNPYDHP | not soluble
MGSDKIHHHHHHMISASTLNSELINKIAQDFAQATSLAVVVVNIHGDEISELFNFTPFCQLMRQHPEHSGRCRMSDRCGGLEASKKDQLCIYRCHAGLTDFSIPLVIAGHLVGFVLCGQVRLSNDVELVDILNVDDRWQDDPALVQAFRDVPEMDYSRVIASADLLKLIVENCLKKQLNFVVIKDNPSQNDPAQASRAPSPHDGKMKKALRYIDAHLSDELRLEDVAAHVYLSPYYFSKLFKKYQGIGFNAWVNQQRMASAKELLCHSDWSIASIARNLGFSQTSYFCKVFRQTYQVTPQAFRQQINAGSQTESF | not soluble
MGSDKIHHHHHHMATLLLEDGTIESNLDEIARELAPLGVYIKHYDPGTSILFPHLLIQDALTDKEKCHIVDLHNSVFEFIQQENGYLWCDLLNVHPGSPNLQTLIATYAKYHTHTAPEALYVLAGEMIFGFVKPDGSQVQLLVQSQDYLHIPSGVEHWCSLTASLSFKAVRYFTAADGWVPNYTGTQLNDSLNK | not soluble
MGSDKIHHHHHHIANVETSSRNAIGFNVLSNAAETRATPTTNTNLKNTDFDVFAFTADGTAFMGKNDTEFEHDGVKIVYKNGKWDYDNASDLRYWPTEALDFYAFNPGTVSEDMMAFYSWEATKDVQKISYTCMDEYGSGTTHANYDVMYAMAKGQTKDMNNGIVKFNFKHILSQVVFKAKTQYDNMQVDIDVIKIHNFKFAGAFTLPAAADGTGSWSSSDLAFPHAFTVVKNANITVNSNTEATDITTNTPMLNIPQELTAWKVSETATKSKLEADNAKQCYLEIACKIRQSGAYLLGSASEYKTIYVPFGDTWEQGKRHIYTLIFGGGYDDQGEAVLNPIQFDAETTGWVDADKDVNVQP | not soluble
MGSDKIHHHHHHMTLLDEAVVLNDGSLMPKVGVVVGNKPADDAIKAGYRLIDCSLDQKTKLKAENPQLYVEVQVPEDVITRDDFKKIRQDIIDHHADLCLLKLSDNKEKNGQIWQELEQLKIQGWIKNIGVINISVDALNELLNHTQVRPCVAQISYEDQGLINLARENRIQVEIPVHGDINALAEIASHYGTSSVELVMRYFSQKGIVPLFEIEDVVENPRINFTINAEDLATIGQLFAQK | not soluble

Summary for this sequence, `MKFHVIDRENWNREQYFEHYLELKCTFSMTVNVDITLLIKKVHQKGIKFYPTFIYIISRIINKHKEFRTCFNDEGVLGYWEEMIPSYTIFHKDDKSFSSIWTDYSSDFRIFYKNYEEDMRCYASVHGLLTKENIPPNIFPISGIPWTSFTGFNLNINNDGDFLLPIITCGKYFNEENKIMLPVSLQVHHSVCDGYHVSRFIEDLQELSNSCNEWLK` : soluble on expression in E. coli is not soluble

Summary for this sequence, `MSLLRPLSKTDCPMLQEINAKALGYLVSLDLLERQYERLIEDCHHYFLAYADKDTNQLLGYVHAERYETLYASDGLNLLGLAVLPAYQRRGIGSALLRALESQARQEGIAFIRLNSASHRKEAHAFYRNLDYADDKTQLRFIKNLQGDDNDFEGHHHHHH` : soluble on expression in E. coli is soluble
